Target: TEAD2 (Homo sapiens);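 also: TR-FRET competition assay with His-tagged TEAD protein and a biotinylated lipid pocket probe, where probe displacement by compound lowers the signal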
Sequence (Q15562 whole entry, species assumed): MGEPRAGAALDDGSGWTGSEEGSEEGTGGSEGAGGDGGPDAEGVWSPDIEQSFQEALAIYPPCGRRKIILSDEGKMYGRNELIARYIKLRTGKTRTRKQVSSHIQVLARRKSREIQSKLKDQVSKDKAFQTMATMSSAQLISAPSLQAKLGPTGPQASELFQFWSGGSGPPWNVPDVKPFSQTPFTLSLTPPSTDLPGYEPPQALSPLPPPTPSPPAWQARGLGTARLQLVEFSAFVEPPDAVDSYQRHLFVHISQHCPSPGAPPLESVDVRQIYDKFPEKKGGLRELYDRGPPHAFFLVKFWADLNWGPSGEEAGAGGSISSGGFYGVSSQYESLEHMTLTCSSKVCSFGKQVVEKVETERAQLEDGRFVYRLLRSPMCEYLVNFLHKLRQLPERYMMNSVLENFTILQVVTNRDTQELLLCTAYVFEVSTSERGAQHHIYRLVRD
Test: biochemical
measurement type: pIC50
Kindly note that pIC50 refers to -log10 of the concentration in mol/L and answer with the value alone.

Past entries and their recorded results:
Please list pIC50 recorded for the compound C=CC(=O)N(C)Cc1cc(-c2ccc(OC(F)(F)F)cc2)c2c(c1CO)CCO2 [Compound 88]
8.17

Please list pIC50 recorded for the compound C=CC(=O)NCc1cc(-c2ccc(OC(F)(F)F)cc2)c2nccn2c1 [Compound 37]
6.02

Please list pIC50 recorded for the compound C=CC(=O)NCc1nc(-c2ccc(OC(F)(F)F)cc2)c2ncn(C)c2c1CO [Compound 73]
7.40

Please list pIC50 recorded for the compound C=CC(=O)NCc1nc(N2CCC(C(F)(F)F)CC2)c2ncn(C)c2n1 [Compound 130]
6.00

Please list pIC50 recorded for the compound O=C(CCl)NCc1nc(-c2ccc(OC(F)(F)F)cc2)c2ncsc2n1 [Compound 15]
6.52

Please list pIC50 recorded for the compound [2H]C([2H])=C([2H])C(=O)NCc1cc(-c2ccc(OC(F)(F)F)cc2)c2c(c1CO)CCO2 [Compound 20]
7.63

Please list pIC50 recorded for the compound C=CC(=O)N(C)Cc1cc(-c2ccc(OC(F)(F)F)cc2)c2nccn2c1 [Compound 38]
7.48

Please list pIC50 recorded for the compound C=CC(=O)NCc1cc(-c2ccc(OC(F)(F)F)cc2)c2ncn(C)c2c1NCCO [Compound 140]
7.33

Further cases:
Please list pIC50 recorded for the compound C=CC(=O)NCc1cc(-c2ccc(OC(F)(F)F)cc2)c2nccnc2c1[C@H](C)O (single isomer, unassigned) [Compound 83]
8.22

Please list pIC50 recorded for the compound C=CC(=O)N(C)Cc1cc(-c2ccc(OC(F)(F)F)cc2)c2ncccc2c1[C@@H](O)CO (single isomer, unassigned) [Compound 52]
7.34
